The entries below come with measured growth values attached.
test system: OVCAR-3 ovarian; test: NCI-60 one-dose screen, 48 h (100 = growth as untreated, 0 = no growth, -100 = all killed); conditions: 10 µM unless noted
Compounds without any hit were thinned out: in the full panel of roughly 83,000, 20% have a hit.
Reported Property: growth (%)

molecule=CC(=O)Oc1cccc(S(=O)(=O)n2cc(C(=O)C(=O)Nc3ccncc3)c3ccccc32)c1 assayed_target="OVCAR-3 ovarian" reported_property=growth result_unit=% readout_number=101
molecule=O=C(c1ccccc1)c1c(/C=C/c2ccccc2)c2ccccc2[nH]c1=O assayed_target="OVCAR-3 ovarian" reported_property=growth result_unit=% readout_number=97.6
molecule="CC(C)(C)OC(=O)NC(CSCc1ccccc1)C(=O)ON1C(=O)CCC1=O (stereo not given)" assayed_target="OVCAR-3 ovarian" reported_property=growth result_unit=% readout_number=107
molecule=COc1cc(-c2nc(N=Nc3c(O)[nH]c4ccc(Br)cc34)[nH]c(=O)c2C#N)cc(OC)c1OC assayed_target="OVCAR-3 ovarian" reported_property=growth result_unit=% readout_number=102
molecule=Cc1nn(-c2ccc([N+](=O)[O-])cc2)c2ncnc(NCCc3ccccc3)c12 assayed_target="OVCAR-3 ovarian" reported_property=growth result_unit=% readout_number=112

---

tested on: KM12 colon; assay: NCI-60 one-dose screen, 48 h (100 = growth as untreated, 0 = no growth, -100 = all killed); settings: 10 µM unless noted
About 83,000 compounds went through this panel and 20% of them were active in at least one assay; those are over-represented in the sample as a whole.
Label scheme for growth: lower than 80% is not fulfilled, 80% and above is fulfilled.

molecule=COc1ccc(OC)c(/C=C2\Oc3cc(OCCCN4CCCC4)ccc3C2=O)c1 assayed_target="KM12 colon" classification="not fulfilled"
molecule=CCOC(=O)c1c(/N=C2\SC(=O)/C(=C\C(=O)OC)N2NC)sc2c1CCN(C(=O)OCC)C2 assayed_target="KM12 colon" classification=fulfilled
molecule=COc1ccc(-n2c(=S)sc3c(Cl)nc(C)nc32)c(OC)c1 assayed_target="KM12 colon" classification="not fulfilled"
molecule=O=c1cc(Cc2ccc([N+](=O)[O-])cc2)[nH]c(=O)[nH]1 assayed_target="KM12 colon" classification=fulfilled
molecule=Cn1cc(-c2cnc3ccc(NC(=O)Nc4ccc(F)c(Br)c4)cc3n2)cn1 assayed_target="KM12 colon" classification="not fulfilled"
molecule="CCO/C=N/C1=C(C#N)C(c2ccc(Cl)cc2)c2c(c3ccc(C)cc3[nH]c2=O)O1 (centres undefined)" assayed_target="KM12 colon" classification=fulfilled
molecule="C=C1CCC2C3(C)COC(c4ccc(N(C)C)cc4)OC3CCC2(C)C1C/C=C1/C(=O)OCC1O (centres undefined)" assayed_target="KM12 colon" classification="not fulfilled"
molecule=COc1ccc(/C=C2\Oc3cc(OCCCN4CCCC4)ccc3C2=O)cc1 assayed_target="KM12 colon" classification=fulfilled
molecule=COc1ccc(CNCCCN2C(=O)c3ccc4c5c(ccc(c35)C2=O)C(=O)N(CCCNCCCCNCCCN)C4=O)c(OC)c1OC assayed_target="KM12 colon" classification="not fulfilled"
molecule=CN(C)CCCN(c1nc(C(Cl)(Cl)Cl)ns1)c1nc(C(Cl)(Cl)Cl)ns1 assayed_target="KM12 colon" classification="not fulfilled"
molecule=CC1(c2ccc(Cl)cc2)OC(=O)CC(=O)O1 assayed_target="KM12 colon" classification=fulfilled
molecule="COc1ccc(/C=C2/C(=O)NC(SCC(=O)N3CCN(c4cc5c(cc4F)c(=O)c(C(=O)O)cn5C4CC4)CC3)=NC2N)cc1OC (centres undefined)" assayed_target="KM12 colon" classification=fulfilled
molecule=COc1ccc(-c2nc(SCCC(C)C)nc(Nc3ccc(F)c(Cl)c3)c2C#N)cc1 assayed_target="KM12 colon" classification=fulfilled
molecule=CCN1CCN(CC(=O)N2c3cccc4cccc(c34)N(C(=O)CN3CCN(CC)CC3)C2c2cn(-c3ccccc3)nc2-c2cccc([N+](=O)[O-])c2)CC1 assayed_target="KM12 colon" classification="not fulfilled"
molecule="C=C1CC2(OC1=O)C(=O)N(CCCN1C(=O)C3(CC(=C)C(=O)O3)c3ccccc31)c1ccccc12 (centres undefined)" assayed_target="KM12 colon" classification="not fulfilled"
molecule=COc1ccc(S(=O)(=O)n2cc(C(=O)C(=O)Nc3ccncc3)c3ccccc32)cc1F assayed_target="KM12 colon" classification="not fulfilled"
molecule=O=C1Nc2ccc3c(c2/C1=C\c1cc2c(cc1Br)OCO2)OCO3 assayed_target="KM12 colon" classification="not fulfilled"
molecule="C=C1CCC2C3(C)COC(c4c(OC)cccc4OC)OC3CCC2(C)C1C/C=C1/C(=O)OCC1O (centres undefined)" assayed_target="KM12 colon" classification="not fulfilled"
